Reported Solubility in Toluene values for a set of compounds
test: Solubility in organic solvents; format: physicochemical; conditions: 25° C.; amount of solute (g) based on 100 ml of solvent; toluene

>  <COMPOUND STRUCTURE>
Cc1ccc(N(c2ccc(-c3ccc(-c4ccc(N(c5ccc(C)cc5)c5ccc6c(c5)CCC6)cc4)cc3)cc2)c2ccc3c(c2)CCC3)cc1

>  <DISPLAY UNIT>
g/100 ml

>  <Solubility in Toluene>
11.0

$$$$
>  <COMPOUND STRUCTURE>
Cc1ccc(N(c2ccc(C)cc2)c2ccc(-c3ccc(-c4ccc(N(c5ccc(C)cc5)c5ccc(C)cc5)cc4)cc3)cc2)cc1

>  <DISPLAY UNIT>
g/100 ml

>  <Solubility in Toluene>
2.2

$$$$
>  <COMPOUND STRUCTURE>
COc1ccc(N(c2ccccc2)c2ccc(-c3ccc(-c4ccc(N(c5ccccc5)c5ccc(OC)cc5C)cc4)cc3)cc2)c(C)c1

>  <DISPLAY UNIT>
g/100 ml

>  <Solubility in Toluene>
9.3

$$$$
